These data points were gathered from patent US20180002320A1.

System: Puccinia triticina
Assay: Wheat Brown Rust (PUCCRT) fungicidal activity
Format: in vivo
Settings: 24 h, Low Volume (121.5 g/H), 1 Day Protectant, read-out: PUCCRT 1DP disease control
reported-metric: pest or weed control at 121.5 g/ha

Recorded results for 5 compounds are shown here.
CC[C@H]1CCOC[C@H](NC(=O)c2nccc(OC)c2OCOC(C)=O)C(=O)O[C@@H](C)[C@@H]1OCC(C)C [Compound 70]; > 80%
COc1ccnc(C(=O)N[C@H]2CCOC[C@H](Oc3ccccc3)[C@@H](Oc3ccccc3)[C@H](C)OC2=O)c1OCOC(C)=O [Compound 37]; > 80%
CCCO[C@H]1CCCC[C@H](NC(=O)c2nccc(OC)c2OCOC(C)=O)C(=O)O[C@@H](C)[C@@H]1Oc1ccccc1 [Compound 23]; > 80%
COc1ccnc(C(=O)N[C@H]2CCCC[C@H](CC3CCCC3)[C@@H](Oc3ccccc3)[C@H](C)OC2=O)c1OC(C)=O [Compound 52]; > 80%
CCCCO[C@H]1CCOC[C@H](NC(=O)c2nccc(OC)c2OCOC(C)=O)C(=O)O[C@@H](C)[C@@H]1OCc1ccccc1 [Compound 2]; > 80%

Lab note: next compound to report on.
What measured pest or weed control at 121.5 g/ha goes with COc1ccnc(C(=O)N[C@H]2COCC[C@H](Cc3ccc(F)cc3)[C@@H](Oc3ccccc3)[C@H](C)OC2=O)c1OCOC(C)=O [Compound 72] ?
> 80%

====

Property: pest or weed control at 121.5 g/ha; scope: individual compounds
System: Puccinia triticina
Test: Wheat Brown Rust (PUCCRT) fungicidal activity
Assay type: in vivo
Conditions: 72 h, Low Volume (121.5 g/H), 3 Day Curative, read-out: PUCCRT 3DC disease control

Recorded results for 5 compounds are shown here.
CCCOC(=O)O[C@H]1CCCC[C@H](NC(=O)c2nccc(OC)c2OCOC(C)=O)C(=O)O[C@@H](C)[C@@H]1OCC(C)C; < 80%
COc1ccnc(C(=O)N[C@H]2CCCC[C@H](CC3CCCC3)[C@@H](OC(=O)C(C)C)[C@H](C)OC2=O)c1OC(C)=O; < 80%
CCOCC(=O)OCOc1c(OC)ccnc1C(=O)N[C@H]1COCC[C@H](Cc2ccc(F)cc2)[C@@H](OCC2CC2)[C@H](C)OC1=O; > 80%
CCCO[C@@H]1[C@@H](CC2CCCC2)CCCC[C@H](NC(=O)c2nccc(OC)c2OCOC(C)=O)C(=O)O[C@H]1C; < 80%
CC[C@H]1CCOC[C@H](NC(=O)c2nccc(OC)c2OCOC(C)=O)C(=O)O[C@@H](C)[C@@H]1Oc1ccccc1; > 80%

What measured pest or weed control at 121.5 g/ha goes with "COc1ccnc(C(=O)N[C@H]2CCCC[C@H](CC3CCCC3)[C@@H](Oc3ccccc3)[C@H](C)OC2=O)c1OC(C)=O" ?
< 80%

What measured pest or weed control at 121.5 g/ha goes with "COc1ccnc(C(=O)N[C@H]2CCCC[C@H](OCc3ccccc3)[C@@H](OCc3ccccc3)[C@H](C)OC2=O)c1OC(C)=O" ?
< 80%

====

Test system: Puccinia triticina
Test: Wheat Brown Rust (PUCCRT) fungicidal activity
Format: in vivo
Details: 72 h, Low Volume (121.5 g/H), 3 Day Curative, read-out: PUCCRT 3DC disease control
reported-metric: pest or weed control at 121.5 g/ha

Recorded results for 5 compounds are shown here.
COc1ccnc(C(=O)N[C@H]2CCCC[C@H](Cc3ccccc3)[C@@H](Oc3ccccc3)[C@H](C)OC2=O)c1OCOC(C)=O; < 80%
COc1ccnc(C(=O)N[C@H]2COCC[C@H](Cc3ccc(F)cc3)[C@@H](OCC3CC3)[C@H](C)OC2=O)c1OC(C)=O; > 80%
CC[C@H]1CCOC[C@H](NC(=O)c2nccc(OC)c2OC(C)=O)C(=O)O[C@@H](C)[C@@H]1OC(=O)c1ccccc1; > 80%
COc1ccnc(C(=O)N[C@H]2CCOC[C@H](OCC(C)C)[C@@H](OCC(C)C)[C@H](C)OC2=O)c1OCOC(C)=O; < 80%
COc1ccnc(C(=O)N[C@H]2CCCC[C@H](OC)[C@@H](OCC(C)C)[C@H](C)OC2=O)c1OC(C)=O; > 80%

Record "COc1ccc(CO[C@H]2[C@H](C)OC(=O)[C@@H](NC(=O)c3nccc(OC)c3OCOC(C)=O)CCOC[C@@H]2OCc2ccc(OC)cc2)cc1" : what is its pest or weed control at 121.5 g/ha with Puccinia triticina?
< 80%

Record "COc1ccc(C[C@H]2CCOC[C@H](NC(=O)c3nccc(OC)c3OCOC(C)=O)C(=O)O[C@@H](C)[C@@H]2Oc2ccccc2)cc1" : what is its pest or weed control at 121.5 g/ha with Puccinia triticina?
< 80%

Record "CCCCO[C@H]1CCOC[C@H](NC(=O)c2nccc(OC)c2OCOC(C)=O)C(=O)O[C@@H](C)[C@@H]1OC(=O)c1ccccc1" : what is its pest or weed control at 121.5 g/ha with Puccinia triticina?
> 80%

Record "COc1ccnc(C(=O)N[C@H]2CCCC[C@H](Oc3ccccc3)[C@@H](OC3CCCC3)[C@H](C)OC2=O)c1OCOC(C)=O" : what is its pest or weed control at 121.5 g/ha with Puccinia triticina?
> 80%

Record "COc1ccnc(C(=O)N[C@H]2COCC[C@H](Cc3ccccc3)[C@@H](OCC(C)C)[C@H](C)OC2=O)c1OC(C)=O" : what is its pest or weed control at 121.5 g/ha with Puccinia triticina?
> 80%

Record "COc1ccnc(C(=O)N[C@H]2COCC[C@H](Cc3ccc(F)cc3)[C@@H](OCC3CC3)[C@H](C)OC2=O)c1OCOC(C)=O" : what is its pest or weed control at 121.5 g/ha with Puccinia triticina?
> 80%

Record "CCOCC(=O)OCOc1c(OC)ccnc1C(=O)N[C@H]1CCCC[C@H](CC2CCCC2)[C@@H](Oc2ccccc2)[C@H](C)OC1=O" : what is its pest or weed control at 121.5 g/ha with Puccinia triticina?
< 80%

Record "COc1ccnc(C(=O)N[C@H]2CCCC[C@H](Oc3ccccc3)[C@@H](Oc3ccccc3)[C@H](C)OC2=O)c1OCOC(C)=O" : what is its pest or weed control at 121.5 g/ha with Puccinia triticina?
> 80%

Record "COc1ccnc(C(=O)N[C@H]2COCC[C@H](Cc3ccccc3)[C@@H](OCC(C)C)[C@H](C)OC2=O)c1OCOC(C)=O" : what is its pest or weed control at 121.5 g/ha with Puccinia triticina?
> 80%

Record "COc1ccnc(C(=O)N[C@H]2CCOC[C@H](Oc3ccccc3)[C@@H](OCC(C)C)[C@H](C)OC2=O)c1OCOC(C)=O" : what is its pest or weed control at 121.5 g/ha with Puccinia triticina?
< 80%

Record "COc1ccnc(C(=O)N[C@H]2CCCC[C@H](OC)[C@@H](OC3CCCC3)[C@H](C)OC2=O)c1OCOC(C)=O" : what is its pest or weed control at 121.5 g/ha with Puccinia triticina?
> 80%

Record "COc1ccnc(C(=O)N[C@H]2CCCC[C@H](OC3CCCC3)[C@@H](OC)[C@H](C)OC2=O)c1OCOC(C)=O" : what is its pest or weed control at 121.5 g/ha with Puccinia triticina?
< 80%

Record "COc1ccnc(C(=O)N[C@H]2CCCC[C@H](Oc3ccccc3)[C@@H](Oc3ccccc3)[C@H](C)OC2=O)c1OC(C)=O" : what is its pest or weed control at 121.5 g/ha with Puccinia triticina?
< 80%

Record "COc1ccnc(C(=O)N[C@H]2COCC[C@H](Cc3ccc(F)cc3)[C@@H](Oc3ccccc3)[C@H](C)OC2=O)c1OCOC(C)=O" : what is its pest or weed control at 121.5 g/ha with Puccinia triticina?
> 80%

Record "CC(=O)OCOc1cccnc1C(=O)N[C@H]1CCCC[C@H](CC2CCCC2)[C@@H](Oc2ccccc2)[C@H](C)OC1=O" : what is its pest or weed control at 121.5 g/ha with Puccinia triticina?
< 80%
